- Tested on: HIV Env of isolate TRO.11 (clade B) (HIV)
- Protocol text: cell-based or functional assay
Readout: IC50 (µg/ml) with constrains (µg/mL)
Give the value in µg/mL but do not write µg/mL after it.

# Binder, Readout, Result
measured = [
    ("ePGDM5 (antibody, V domains shown) VH: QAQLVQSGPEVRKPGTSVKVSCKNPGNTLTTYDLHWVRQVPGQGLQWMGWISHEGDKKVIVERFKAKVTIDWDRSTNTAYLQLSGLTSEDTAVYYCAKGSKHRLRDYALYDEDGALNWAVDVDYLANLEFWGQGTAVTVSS VL: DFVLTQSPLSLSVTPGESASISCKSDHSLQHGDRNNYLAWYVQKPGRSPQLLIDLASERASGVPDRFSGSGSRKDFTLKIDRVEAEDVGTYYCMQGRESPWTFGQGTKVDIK", "IC50 (µg/ml) with constrains", 0.315),
    ("ePGDM9 (antibody, V domains shown) VH: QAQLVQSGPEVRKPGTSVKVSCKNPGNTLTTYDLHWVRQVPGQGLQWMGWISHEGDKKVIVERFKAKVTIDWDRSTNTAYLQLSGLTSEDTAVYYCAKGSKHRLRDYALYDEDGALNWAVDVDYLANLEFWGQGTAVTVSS VL: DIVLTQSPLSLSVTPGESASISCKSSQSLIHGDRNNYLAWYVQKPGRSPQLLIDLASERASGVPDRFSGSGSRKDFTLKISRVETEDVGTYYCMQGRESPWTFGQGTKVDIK", "IC50 (µg/ml) with constrains", 0.163),
    ("PGDM1400 (antibody, V domains shown) VH: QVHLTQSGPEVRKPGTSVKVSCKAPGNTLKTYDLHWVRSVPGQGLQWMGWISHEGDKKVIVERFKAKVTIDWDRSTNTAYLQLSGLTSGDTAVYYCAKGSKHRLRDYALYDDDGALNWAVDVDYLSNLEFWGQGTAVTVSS VL: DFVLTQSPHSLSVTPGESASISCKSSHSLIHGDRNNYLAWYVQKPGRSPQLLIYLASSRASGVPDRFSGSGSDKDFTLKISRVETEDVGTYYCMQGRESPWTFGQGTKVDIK", "IC50 (µg/ml) with constrains", 0.206),
]

# evaluate next
IN: // Input: ePGDM13 (antibody, V domains shown) VH: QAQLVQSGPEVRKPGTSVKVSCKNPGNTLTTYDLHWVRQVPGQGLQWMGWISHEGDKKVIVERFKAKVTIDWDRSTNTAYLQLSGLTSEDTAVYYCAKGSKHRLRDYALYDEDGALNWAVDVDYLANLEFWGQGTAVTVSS VL: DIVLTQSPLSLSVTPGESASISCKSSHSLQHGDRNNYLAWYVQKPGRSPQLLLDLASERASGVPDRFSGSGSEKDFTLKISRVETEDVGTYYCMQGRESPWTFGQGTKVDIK . Output its IC50 (µg/ml) with constrains only.
OUT: 0.352
